- Assay Name: Phase 1 single-dose study, plasma PK of solriamfetol by level of renal function
- Assay type: in vivo, human
- Measurement Parameters: both sexes, human, plasma, oral, 75 mg, Group 4 severe renal impairment; single 75-mg dose; read-out: Cmax, geometric LS mean
Measured Attribute: Cmax (ng/mL)
One number for each entry, in ng/mL.

// lookup Cmax for NC(=O)OC[C@H](N)Cc1ccccc1 [solriamfetol, [R]-2-amino-3-phenylpropylcarbamate]
533

* * *

- Assay Name: Phase 1 single-dose study, plasma PK of solriamfetol by level of renal function
- Type: in vivo, human
- Measurement Parameters: both sexes, human, plasma, oral, 75 mg, Group 5.2 ESRD with hemodialysis; single 75-mg dose; read-out: Cmax, mean ± SD (%CV)
- Description: In healthy subjects with normal renal function, solriamfetol HCl is renally excreted ~90% unchanged within 48 hours of administration. […] Eligible participants were assigned to 1 of 5 groups according to renal disease status as measured by the estimated glomerular filtration rate (eGFR) on the day prior to dosing, calculated using the Modification in Diet in Renal Disease equation. […]
Measured Attribute: Cmax (ng/mL)
Numbers only, in ng/mL.

// lookup Cmax for NC(=O)OC[C@H](N)Cc1ccccc1 [solriamfetol, [R]-2-amino-3-phenylpropylcarbamate]
396

Data provenance is patent US20230293475A1.
